Exercise: state measured growth inhibition for each of the compounds provided.
Assay: NCI Yeast Anticancer Drug Screen. Data for the bub3 strain (AID 167)
Conditions: S. cerevisiae bub3 mutant strain, at 11.0 µM, active compounds read high
Compounds without any hit were thinned out: in the full panel of roughly 79,000, 15% have a hit.
Answers are plain numbers, in %.

O=[N+]([O-])c1cccc2nc3ccccc3c(NCCCN3CCOCC3)c12	53
Nc1nc(Cl)c(Cl)c(Cl)n1	18
CC1(C)[C@@H]2CC[C@]1(C)[C@H](OC(=O)CSC#N)C2	-19
Cc1ccc(C2C(Cl)C(=O)N2n2cnc3ccccc3c2=O)cc1 (stereo unspecified)	3
COc1ccc2c(c1)C(=O)c1ccccc1C2	74
Fc1ccc(NC(=S)SCc2ccc3c(c2)OCO3)cc1F	42
O=C1c2ccccc2-c2n[nH]c3cccc1c23	22
CN(C)CCn1c2c3ccccc3ccc2c2oc(=O)c3ccccc3c21	19

I'm hoping you can list growth inhibition for every compound here, please.
1. COc1cccc2nc3ccccc3nc12
2. COc1ccc2sc3cccc(NCCN(C)C)c3c(=O)c2c1
3. Cc1ccc(Nc2nc3c(=O)n(C)c(=O)n(C)c3nc2Nc2ccc(C)cc2)cc1
4. C(=C\c1ccccc1)/COc1ccccc1C(N1CCOCC1)n1nc2ccccc2n1 (stereo unspecified)
5. O=[N+]([O-])/C=C/c1ccc2ccccc2c1
6. COC(=O)CSSCc1ccc([N+](=O)[O-])cc1

1: 2; 2: -3; 3: 0; 4: -4; 5: 99; 6: 24
